All values here come from patent US20250026813A1.

- Measured On: SARS-CoV-2 spike protein receptor binding domain (isolated RBD) (SARS-CoV-2, UniProt P0DTC2 319-541)
Reported values of pKd for individual entries
// scale note: pKd = -log10(conc_M); give the bare number

Binder	pKd
IMPI-060 (antibody, V domains shown) VH: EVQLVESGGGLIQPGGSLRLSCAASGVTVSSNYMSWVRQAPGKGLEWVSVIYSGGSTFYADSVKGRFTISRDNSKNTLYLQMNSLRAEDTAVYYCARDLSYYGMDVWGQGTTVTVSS VL: DIQLTQSPSFLSASVGDRVTITCWASQGISSYLAWYQQKPGKAPKLLIYAASTLQSGVPSKFSGSGSGTEFTLTISSLQPEDFATYYCQQLNSYPSSFGQGTKLEIK	7.23
IMPI-033 (antibody, V domains shown) VH: QVQLQESGPGLVKPSQTLSLTCTVSGGSISSYGYYWSWIRQHPGKGLEWIGYIYYSGSTYYNPSLKSRVTMSVDTSKNQLSLRLNSVSAADTAVYYCARDFGGNSNYFDYWGQGTLVTVSS VL: AIQLTQSPSSLSASVGDRVTITCRASQGISSALAWYQQKPGKAPNLLIYDASSLESGVPSRFSGSGSGTDFTLTISSLQPEDFATYYCQQFNSSPLTFGGGTKVEIK	8.47
IMPI-005 (antibody, V domains shown) VH: EVQLVESGGGLIQPGGSLRLSCAASGFTVSSNYMNWVRQAPGKGLEWVSVIYSGGSTYYADSVKGRFTISRDNSKNTLFLQMNSLRAEDSAVYYCARDLGPYGVDVWGQGTTVTVSS VL: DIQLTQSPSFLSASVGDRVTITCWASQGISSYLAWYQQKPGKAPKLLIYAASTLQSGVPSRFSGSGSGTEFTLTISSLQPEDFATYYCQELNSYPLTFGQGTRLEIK	8.51

Q: Reported pKd, binder IMPI-038 (antibody, V domains shown) VH: QVQLVESGGGVVQPGRSLRLSCAASGFTFSSYGMHWVRQAPGKGLEWVAVISYDGSDKYYADSVKGRFTISRDNSKNTLYLQMNSLRAEDTAVYYCAKTVAGYYYYYYGMDVWGQGTTVTVSS VL: DIQMTQSPSSVSASVGDRVTVTCRASQDISSWLAWFQQKPGKAPKFLIYDASNLENGVPSRFSGSGSGTDFTLTISSLQPEDFATYYCQQAKSFPWTFGQGTKVEIN : ____
Ans: 8.53

Q: Reported pKd, binder IMPI-042 (antibody, V domains shown) VH: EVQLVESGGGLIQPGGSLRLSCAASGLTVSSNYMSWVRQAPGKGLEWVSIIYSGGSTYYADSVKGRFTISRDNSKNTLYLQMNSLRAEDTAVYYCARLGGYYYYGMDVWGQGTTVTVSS VL: DIQMTQSPSSLSASVGERVTITCQASQDIRNYLNWYQKKPGKAPKLLIYDSSNLETGVPSRFSGGGSGTDFTFTISSLQPEDIATYYCQQYDNLPITFGQGTRLEIK : ____
Ans: 8.94
